Source of measurements: PubChem BioAssay (NCI)

Tested on: A498 renal
Assay: NCI tumour cell line growth inhibition, 48 h
Measured GI50, listed per entry for reference.
Observed Property: GI50

>  <Smiles Structure>
COc1ccc2c(c1)C(=O)c1c-2c(NCCN(C)C)nc2ccccc12

>  <Endpoint Result>
11.3 µM

$$$$
>  <Smiles Structure>
Cc1cc2nc(C(Cl)Cl)nc(-c3ccccc3)n2n1

>  <Endpoint Result>
2.6 µM

$$$$
>  <Smiles Structure>
CC#CC(=O)N1CC[C@@H](n2c(=O)n(-c3ccc(Oc4ccccc4)cc3)c3c(N)ncnc32)C1

>  <Endpoint Result>
6.38 µM

$$$$
>  <Smiles Structure>
Fc1cccc(-c2[nH]nc3nc(Nc4cccnc4)sc23)c1

>  <Endpoint Result>
> 100 µM

$$$$

###

Tested on: MDA-MB-231 breast
Assay: NCI tumour cell line growth inhibition, 48 h; in the data active = GI50 below about 0.43 µM; inactive = the rest
Labels: 1 (active), -1 (inactive)

>  <Smiles Structure>
COc1cnc2c(c1)C(=O)c1c-2n(CCCNC(C)C)c(=O)c2cc([N+](=O)[O-])ccc12

>  <Group Label>
1

$$$$
>  <Smiles Structure>
COc1cc(/C=C2\C[C@H]3[C@@H]4CC=C5C[C@@H](OC(C)=O)CC[C@]5(C)[C@H]4CC[C@]3(C)[C@H]2OC(C)=O)ccc1OCCN1CCCCC1

>  <Group Label>
-1

$$$$
>  <Smiles Structure>
Nc1nc(-c2ccccc2)cc(-c2ccc(Cl)cc2)c1-c1nc2ccccc2o1

>  <Group Label>
-1

$$$$
>  <Smiles Structure>
CN1CCN(CC(=O)N2c3cccc4cccc(c34)N(C(=O)CN3CCN(C)CC3)C2c2cn(-c3ccccc3)nc2-c2cccc([N+](=O)[O-])c2)CC1

>  <Group Label>
-1

$$$$

###

Test system: IGROV1 ovarian
Assay: NCI tumour cell line growth inhibition, 48 h
Given measured TGI, output rule met if it is greater than or equal to 40 µM and rule not met if not.

>  <Compound>
COc1ccc2c(c1)CC[C@@H]1[C@@H]2CC[C@]2(C)C(=O)/C(=C/c3ccc(O)c(OC)c3)C[C@@H]12

>  <Assay Target>
IGROV1 ovarian

>  <Group Label>
rule met

$$$$
>  <Compound>
c1ccc2c3c(ccc2c1)-c1c(ccc2c(NCCCCN4CCCCC4)cccc12)C3

>  <Assay Target>
IGROV1 ovarian

>  <Group Label>
rule not met

$$$$
>  <Compound>
O=C1C=C2CC[C@H]3[C@@H]4CC[C@H](OC(=O)c5cccc6cc7ccccc7nc56)[C@H]4CC[C@@H]3[C@H]2CC1

>  <Assay Target>
IGROV1 ovarian

>  <Group Label>
rule met

$$$$
>  <Compound>
Cc1c(CC/C(=N\Nc2ccc([N+](=O)[O-])cc2[N+](=O)[O-])c2ccccc2)c2ccccc2n1C

>  <Assay Target>
IGROV1 ovarian

>  <Group Label>
rule met

$$$$
>  <Compound>
N#CC1(C#N)C(c2ccccc2)C=CC(c2ccc([N+](=O)[O-])cc2)C1(C#N)C#N (centres undefined)

>  <Assay Target>
IGROV1 ovarian

>  <Group Label>
rule not met

$$$$
>  <Compound>
CC(C)(C)C(=O)/C=C/c1cccc(Oc2ccccc2)c1

>  <Assay Target>
IGROV1 ovarian

>  <Group Label>
rule met

$$$$
>  <Compound>
Cc1ccc(NC(=O)CC2C(=O)Nc3ccccc3S2=O)c(C)c1 (centres undefined)

>  <Assay Target>
IGROV1 ovarian

>  <Group Label>
rule met

$$$$
>  <Compound>
CCOC(=O)N1C=CC(=C2C(=C3C=CN(C(=O)OCC)C=C3)C(=C3C=CN(C(=O)OCC)C=C3)C2=C2C=CN(C(=O)OCC)C=C2)C=C1

>  <Assay Target>
IGROV1 ovarian

>  <Group Label>
rule met

$$$$
>  <Compound>
CCCCCCCCCCCCC(CCCCCCCCCCCC)OP(=O)(O)O

>  <Assay Target>
IGROV1 ovarian

>  <Group Label>
rule met

$$$$
